Recorded Relative cAMP EC50, nM (0.1% casein) for the following binders
# SYSTEM: T1, human GIP receptor (human) (UniProt P48546)
# T1 sequence (looked up): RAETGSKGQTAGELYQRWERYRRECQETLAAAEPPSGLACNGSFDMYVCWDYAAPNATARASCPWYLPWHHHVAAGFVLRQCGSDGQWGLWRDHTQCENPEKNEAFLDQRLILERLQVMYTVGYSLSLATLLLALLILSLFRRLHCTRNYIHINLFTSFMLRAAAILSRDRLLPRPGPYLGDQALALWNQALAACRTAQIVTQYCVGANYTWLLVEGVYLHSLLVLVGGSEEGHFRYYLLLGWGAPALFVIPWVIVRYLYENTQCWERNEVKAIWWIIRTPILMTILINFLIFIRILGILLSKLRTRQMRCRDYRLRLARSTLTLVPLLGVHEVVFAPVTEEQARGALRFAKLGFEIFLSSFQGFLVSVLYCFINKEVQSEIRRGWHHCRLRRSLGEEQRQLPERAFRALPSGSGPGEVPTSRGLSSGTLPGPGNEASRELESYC
# ASSAY: cell-based or functional assay

# BINDER, OUTPUT_UNIT, Relative cAMP EC50, nM (0.1% casein)
measured = [
    ("YXQGTFTSDFSXXLDKKAQXAFIEYLLEXGPSSGAPPPSGS (Aib, Orn, αMeL; lipidated Lys (AEEA-γGlu2-C18 diacid); C-term amide; synthetic construct; SITE 2: note = 2-Aminoisobutyric Acid; SITE 12: note = L-ornithine; SITE 13: note = alpha-methyl-leucine; SITE 17: note = Lysine is chemically modified through conjugation of the epsilon-amino group of the Lysine side chain with (2-[2-(2-Amino-ethoxy)-ethoxy]-acetyl)-(gamma-Glu)) [Example 192]", "nM", 0.142),
    ("YXQGTXTSDXSIXLDKKAQXAFIEYLEEGGPSSGEPPPE (synthetic construct; SITE 2: note = 2-Aminoisobutyric Acid; SITE 6: note = alpha-methyl-2-fluoro-L-phenylalanine; SITE 10: note = 3-(4-Pyridyl)-L-alanine; SITE 13: note = alpha-methyl-leucine; SITE 17: note = Lysine is chemically modified through conjugation of the epsilon-amino group of the Lysine) [Example 487]", "nM", 0.0286),
    ("YXQGTFTSDFSXXLDKKAQXAFIEYLLEXGXSSGAPPPSGE (Aib, Orn, αMeL, 4Pal; lipidated Lys; C-terminal amide; synthetic construct; SITE 2: note = 2-Aminoisobutyric Acid; SITE 12: note = L-ornithine; SITE 13: note = alpha-methyl-leucine; SITE 17: note = Lysine is chemically modified through conjugation of the epsilon-amino group of the Lysine side chain with (2-[2-(2-Amino-ethoxy)-ethoxy]-acetyl)2-(gamma-Glu)) [Example 189]", "nM", 0.0695),
]
